Listing of recorded Emax by entry.
test system: primary human T-cells; assay: Proliferation assay after 5 days (CellTiter-Glo, CD3 stimulation; PBS counter screen); type: cell-based; conditions: Homo sapiens, T-cell, 120 h, CD3 stimulation, 5 days; normalized to reference compound A1 as stimulator control = 100%, DMSO neutral control; read-out: Emax proliferation (% activation)
Reply numerically in %, unit not repeated.

Before answering, review these 2 worked examples.
// query Entry CN(CC(F)(F)F)c1nnc(-c2ccc3c(c2)N(Cc2ccc(Cl)cc2)C(=O)[C@@H](N)CS3(=O)=O)o1 [Example 392] has what Emax?
// result 96

// query Item: N[C@H]1CS(=O)(=O)c2cc(F)c(-c3nnc(CCF)o3)cc2N(Cc2ccc(Cl)cc2)C1=O [Example 83]
// result 27

Continuing:
// query Requested field: Emax. Item: CC(C)(C#N)c1nnc(-c2ccc3c(c2)N(Cc2ccc(Cl)cc2)C(=O)[C@@H](N)CS3(=O)=O)o1 [Example 364]
// result 108
